systemUnderTest: Salicyl-AMP ligase / salicyl-S-ArCP synthetase (Mycobacterium tuberculosis)
Sequence (P71716 whole entry): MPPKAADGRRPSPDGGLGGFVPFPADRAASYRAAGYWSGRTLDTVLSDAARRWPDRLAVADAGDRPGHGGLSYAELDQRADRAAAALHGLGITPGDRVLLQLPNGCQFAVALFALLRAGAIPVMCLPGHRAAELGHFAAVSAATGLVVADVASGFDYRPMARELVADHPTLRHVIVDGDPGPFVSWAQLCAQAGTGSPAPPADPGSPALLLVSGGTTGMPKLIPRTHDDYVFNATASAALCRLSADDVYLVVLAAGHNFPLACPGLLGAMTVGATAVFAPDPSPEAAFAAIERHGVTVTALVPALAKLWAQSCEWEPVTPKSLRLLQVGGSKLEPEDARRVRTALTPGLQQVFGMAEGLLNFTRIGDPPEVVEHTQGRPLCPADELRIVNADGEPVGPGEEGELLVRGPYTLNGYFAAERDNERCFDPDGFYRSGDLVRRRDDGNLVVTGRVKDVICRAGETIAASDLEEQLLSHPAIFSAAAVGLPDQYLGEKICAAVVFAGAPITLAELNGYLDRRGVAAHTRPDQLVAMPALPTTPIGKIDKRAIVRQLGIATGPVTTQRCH
Label TRUE when Ki is strictly below 60 nM; at or above that, label FALSE.

Previously resolved entries follow.
compoundString: Nc1ncnc2ncn([C@H]3C[C@H](O)[C@@H](COS(=O)(=O)NC(=O)c4ccccc4O)O3)c12
label: TRUE

compoundString: Nc1ncnc2ncn([C@@H]3O[C@H](COS(=O)(=O)NC(=O)c4ccccc4O)C[C@H]3O)c12
label: TRUE

compoundString: Nc1ncnc2ncn([C@@H]3O[C@H](CNS(=O)(=O)NC(=O)c4ccccc4O)[C@@H](O)[C@H]3O)c12
label: TRUE

compoundString: Nc1ncnc2ncn(COCCOS(=O)(=O)NC(=O)c3ccccc3O)c12
label: FALSE

compoundString: Nc1ncnc2ncn([C@H]3C=C[C@@H](COS(=O)(=O)NC(=O)c4ccccc4O)C3)c12
label: FALSE

Would you kindly look at the next entry?
input: Item Nc1ncnc2ncn([C@@H]3C[C@H](COS(=O)(=O)NC(=O)c4ccccc4O)[C@@H](O)[C@H]3O)c12 : Ki beneath 60 nM, strictly?
output: TRUE
